details: human gut metagenome, 24 h, 2 µM; also: call rule not given here
parameter: Bacterial Biotransformation

Example entries and their recorded answers appear below.
                                   compound                    parameter              assay_result
0  COc1ccc(CCN(C)CCCC(C#N)(c2ccc(OC)c(OC)c2)C(C)C)cc1OC (stereo not drawn)  Bacterial Biotransformation  Compound NOT metabolized
1  CCN(CC)CCNC(C(=O)OCCC(C)C)c1ccccc1.Cl.Cl (stereo not drawn)  Bacterial Biotransformation  Compound NOT metabolized
2  CN1CC(=O)N2[C@H](c3ccc4c(c3)OCO4)c3[nH]c4ccccc4c3C[C@@H]2C1=O  Bacterial Biotransformation  Compound NOT metabolized
3  CC(=O)O[C@]1(C(C)=O)CC[C@H]2[C@@H]3C=C(Cl)C4=CC(=O)[C@@H]5C[C@@H]5[C@]4(C)[C@H]3CC[C@@]21C [CYPROTERONE ACETATE]  Bacterial Biotransformation  Compound NOT metabolized
4  COc1cc2c(c(OC)c1OC)-c1ccc(OC)c(=O)cc1[C@@H](NC(C)=O)CC2 [COLCHICINE]  Bacterial Biotransformation      Compound metabolized

compound CCN1CCCC1CNC(=O)c1cc(S(N)(=O)=O)ccc1OC (stereo not drawn) [SULPIRIDE] , Bacterial Biotransformation observed: Compound NOT metabolized

N#Cc1ccc(C(c2ccc(C#N)cc2)n2cncn2)cc1 [LETROZOLE] yielded Bacterial Biotransformation of Compound NOT metabolized

The compound listed as C[C@@H](CO)NC(=O)[C@@H]1C=C2c3cccc4[nH]cc(c34)C[C@H]2N(C)C1.O=C(O)/C=C\C(=O)O [ERGONOVINE MALEATE] has a reported Bacterial Biotransformation of Compound metabolized
